Species: Homo sapiens
Test: Potency index, ratio of PDTC IC50 to compound IC50 for LPS-induced NFkappaB (unknown origin) transcriptional activity expressed in mouse RAW264.7 cells
Assay type: cell-based
Examples of compounds with documented Ratio IC50 follow.
Hey, just send me the number, nothing else.

Here are 3 compounds together with their reported answers.
O=C(Nc1ccccc1C(F)(F)F)C1CCc2ccccc2N1C(=O)c1ccc(Cl)cc1 (centres undefined); 13
O=C(Nc1ccccc1C(F)(F)F)C1CCc2ccccc2N1C(=O)c1ccccc1Cl (centres undefined); 41
O=C(Nc1ccccc1O)C1CCc2ccccc2N1C(=O)c1ccccc1 (centres undefined); 26

Kindly review the next compound as well.
Looking up O=C(Nc1ccccc1C(F)(F)F)C1CCc2ccccc2N1C(=O)c1cccc(Cl)c1 (centres undefined) , I found its Ratio IC50 recorded as 53

* * *

Tested on: ACHN
Assay: Cytotoxicity against human ACHN cells after 72 hrs by sulforhodamine B assay
Assay type: functional
Below, each entry is listed alongside its reported GI50.

For orientation, consider the following solved cases.
CC(=O)N1c2ccccc2CCC1C(=O)Nc1cc(C(F)(F)F)cc(C(F)(F)F)c1 (stereo not drawn); > 70 µM
O=C(Nc1ccc(O)cc1)C1CCc2ccccc2N1 (stereo not drawn); > 100 µM

// switching to the query molecule
// CCC(=O)N1c2ccccc2CCC1C(=O)Nc1ccccc1O (stereo not drawn) : GI50 value = > 90 µM
